assay_metric: IC50 (nM)
Numeric only. Scale: nM

Record COc1ccc(C2=CCCN([C@@H]3CCCC[C@H]3N3CCCC3)C2=O)cc1OC (relative stereo) / opiated K Receptor (Cavia porcellus, UniProt P41144), IC50 recorded as 9

IC50 on opiated K Receptor (Cavia porcellus, UniProt P41144) for O=C1C(c2ccc(Cl)c(Cl)c2)CCCN1[C@@H]1CCCC[C@H]1N1CCCC1 (mixture of isomers) is 22

# lookup: COc1ccc(C2C(=O)CCN([C@@H]3CCCC[C@H]3N3CCCC3)C2=O)cc1OC (mixture of isomers) on opiated K Receptor (Cavia porcellus, UniProt P41144), IC50 = 0.2
